Target: MARK3 (human) (UniProt P27448)
Sequence (P27448 whole entry, looked up): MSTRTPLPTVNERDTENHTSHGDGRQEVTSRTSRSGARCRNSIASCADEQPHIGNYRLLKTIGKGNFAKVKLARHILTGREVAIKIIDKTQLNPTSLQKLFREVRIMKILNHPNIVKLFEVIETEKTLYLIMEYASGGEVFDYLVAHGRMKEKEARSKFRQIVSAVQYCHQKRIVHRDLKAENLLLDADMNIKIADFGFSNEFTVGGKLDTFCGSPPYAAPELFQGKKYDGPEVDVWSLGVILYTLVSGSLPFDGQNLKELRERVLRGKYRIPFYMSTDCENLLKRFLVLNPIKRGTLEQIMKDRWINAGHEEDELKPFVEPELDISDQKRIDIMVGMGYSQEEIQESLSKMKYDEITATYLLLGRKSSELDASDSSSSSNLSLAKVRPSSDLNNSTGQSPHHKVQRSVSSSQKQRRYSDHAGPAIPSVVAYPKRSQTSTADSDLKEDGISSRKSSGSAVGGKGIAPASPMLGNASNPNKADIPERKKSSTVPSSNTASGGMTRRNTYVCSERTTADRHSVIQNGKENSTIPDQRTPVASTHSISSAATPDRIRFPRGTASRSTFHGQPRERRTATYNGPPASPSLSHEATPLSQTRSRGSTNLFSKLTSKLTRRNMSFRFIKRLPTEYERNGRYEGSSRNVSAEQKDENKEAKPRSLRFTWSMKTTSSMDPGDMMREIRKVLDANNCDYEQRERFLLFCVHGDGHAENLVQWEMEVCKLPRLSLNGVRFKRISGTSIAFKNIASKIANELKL
Experiment: radiometric filter-binding kinase assay
Conditions: compound 1.0 µM
Listed here are molecules together with their documented residual activity.

MOLECULE: Cc1ccc(=O)n(-c2ccccc2)c1
SYSTEM UNDER TEST: MARK3 (human) (UniProt P27448)
residual activity [%]: 108
--
MOLECULE: COc1ccc2c(c1)c1c3c(c4c5ccccc5n(C)c4c1n2CC(O)CN(C)C)C(=O)NC3=O (stereo unspecified)
SYSTEM UNDER TEST: MARK3 (human) (UniProt P27448)
residual activity [%]: 68
--
MOLECULE: O=C(O)c1ccc(-c2c[nH]c3ncc(-c4ccccc4)cc23)cc1C1CCCC1
SYSTEM UNDER TEST: MARK3 (human) (UniProt P27448)
residual activity [%]: 60
--
MOLECULE: O=C(N[C@@H](COc1ccc2[nH]c(=O)[nH]c2c1)c1ccccc1)c1cccn(Cc2ccc(F)c(F)c2)c1=O
SYSTEM UNDER TEST: MARK3 (human) (UniProt P27448)
residual activity [%]: 93
--
MOLECULE: COc1cc(O)c2c(c1)[C@H]1OC1C[C@H](O)[C@H](O)C(=O)/C=C\C[C@H](C)OC2=O (stereo partly specified)
SYSTEM UNDER TEST: MARK3 (human) (UniProt P27448)
residual activity [%]: 95
--
MOLECULE: O=C(NOCC(O)CO)c1ccc(F)c(F)c1Nc1ccc(I)cc1Cl (stereo unspecified)
SYSTEM UNDER TEST: MARK3 (human) (UniProt P27448)
residual activity [%]: 73
--
MOLECULE: Cc1cc(NC(=O)c2cccc(NC(=O)/C=C/CN(C)C)c2)ccc1Nc1nccc(-c2cccnc2)n1
SYSTEM UNDER TEST: MARK3 (human) (UniProt P27448)
residual activity [%]: 93
--
MOLECULE: Nc1cccc2c1CN(C1CCC(=O)NC1=O)C2=O (stereo unspecified)
SYSTEM UNDER TEST: MARK3 (human) (UniProt P27448)
residual activity [%]: 91
--
MOLECULE: CNC(=O)C1[C@H]2O[C@@](C)([C@@H]1N)n1c3ccccc3c3c4c(c5c6ccccc6n2c5c31)C(=O)NC4 (stereo partly specified)
SYSTEM UNDER TEST: MARK3 (human) (UniProt P27448)
residual activity [%]: 2
--
MOLECULE: CCCCCc1ccc(/C=C/[C@H](O)[C@@H](CO)NC)cc1
SYSTEM UNDER TEST: MARK3 (human) (UniProt P27448)
residual activity [%]: 107
--
MOLECULE: NC1(c2ccc(-c3nc4ccn5c(=O)[nH]nc5c4cc3-c3ccccc3)cc2)CCC1
SYSTEM UNDER TEST: MARK3 (human) (UniProt P27448)
residual activity [%]: 99
--
MOLECULE: O=C1NC(=S)N[C@@H]1Cc1c[nH]c2ccccc12
SYSTEM UNDER TEST: MARK3 (human) (UniProt P27448)
residual activity [%]: 92
--
MOLECULE: CN(C)C/C=C/C(=O)Nc1cccc(C(=O)Nc2ccc(Nc3nccc(-c4cccnc4)n3)cc2)c1
SYSTEM UNDER TEST: MARK3 (human) (UniProt P27448)
residual activity [%]: 76
--
MOLECULE: CCNc1nc(Nc2cc(F)c(C(=O)N3CCOCC3)cc2OC)ncc1C(F)(F)F
SYSTEM UNDER TEST: MARK3 (human) (UniProt P27448)
residual activity [%]: 80
--
MOLECULE: O=C(NOC[C@H](O)CO)c1ccc(F)c(F)c1Nc1ccc(I)cc1Cl
SYSTEM UNDER TEST: MARK3 (human) (UniProt P27448)
residual activity [%]: 91
--
MOLECULE: CCn1c(-c2nonc2N)nc2cncc(CNC3CCNCC3)c21
SYSTEM UNDER TEST: MARK3 (human) (UniProt P27448)
residual activity [%]: 87
--
MOLECULE: O=C(Nc1nc2cc(C(F)(F)F)cc(NC3CC3)n2n1)c1cccnc1
SYSTEM UNDER TEST: MARK3 (human) (UniProt P27448)
residual activity [%]: 86
--
MOLECULE: COc1cc(C(=O)N2CCOCC2)c(F)cc1Nc1ncc(C(F)(F)F)c(NC2CC2)n1
SYSTEM UNDER TEST: MARK3 (human) (UniProt P27448)
residual activity [%]: 91
--
MOLECULE: COc1ccc(N(C(=O)Nc2c(C)cccc2C)c2cc(Nc3ccc(N4CCN(C)CC4)cc3)ncn2)c(OC)c1
SYSTEM UNDER TEST: MARK3 (human) (UniProt P27448)
residual activity [%]: 28
--
MOLECULE: Oc1ccc2ccccc2c1SSc1c(O)ccc2ccccc12
SYSTEM UNDER TEST: MARK3 (human) (UniProt P27448)
residual activity [%]: 81
--
MOLECULE: Cc1nc(-c2ccc(OCC(C)C)c(C#N)c2)sc1C(=O)O
SYSTEM UNDER TEST: MARK3 (human) (UniProt P27448)
residual activity [%]: 91
--
MOLECULE: O=c1c(O)c(-c2ccc(O)c(O)c2)oc2cc(O)c(O)c(O)c12
SYSTEM UNDER TEST: MARK3 (human) (UniProt P27448)
residual activity [%]: 51
--
MOLECULE: O=C(NCCCNc1nc(Nc2cccc(CN3CCOCC3)c2)ncc1C1CC1)C1CCC1
SYSTEM UNDER TEST: MARK3 (human) (UniProt P27448)
residual activity [%]: 1
--
MOLECULE: Cn1nc(Nc2ccc(F)cc2)c2c(N)ncnc21
SYSTEM UNDER TEST: MARK3 (human) (UniProt P27448)
residual activity [%]: 82
--
MOLECULE: COc1cc(O)c2c(c1)/C=C/C[C@H](O)[C@H](O)C(=O)/C=C\C[C@H](C)OC2=O
SYSTEM UNDER TEST: MARK3 (human) (UniProt P27448)
residual activity [%]: 77
--
MOLECULE: O=C1Nc2nc(-c3c(O)cccc3OCC3CC3)cc(C3CCCNC3)c2CO1 (stereo unspecified)
SYSTEM UNDER TEST: MARK3 (human) (UniProt P27448)
residual activity [%]: 100
--
MOLECULE: NS(=O)(=O)OC[C@@H]1C[C@@H](n2ccc3c(N[C@H]4CCc5ccccc54)ncnc32)C[C@@H]1O
SYSTEM UNDER TEST: MARK3 (human) (UniProt P27448)
residual activity [%]: 101
--
MOLECULE: O=C(Nc1ccccc1-c1cn2c(CN3CCNCC3)csc2n1)c1cnc2ccccc2n1
SYSTEM UNDER TEST: MARK3 (human) (UniProt P27448)
residual activity [%]: 108
--
MOLECULE: Oc1ccc(/C=C/c2cc(O)cc(O)c2)cc1
SYSTEM UNDER TEST: MARK3 (human) (UniProt P27448)
residual activity [%]: 99
--
MOLECULE: CCCC(CCC)C(=O)O
SYSTEM UNDER TEST: MARK3 (human) (UniProt P27448)
residual activity [%]: 100
--
MOLECULE: Cc1ccc(-c2ccc3c(ccc4sc5c(c43)NC[C@@H](C)NC5=O)n2)cn1
SYSTEM UNDER TEST: MARK3 (human) (UniProt P27448)
residual activity [%]: 115
--
MOLECULE: CN1C(=O)[C@@H](Cc2c[nH]c3ccccc23)NC1=S
SYSTEM UNDER TEST: MARK3 (human) (UniProt P27448)
residual activity [%]: 94
--
MOLECULE: CC(C)(C#N)c1ccc(N2C(=O)OCc3cnc4ccc(-c5cnc6ccccc6c5)cc4c32)cc1
SYSTEM UNDER TEST: MARK3 (human) (UniProt P27448)
residual activity [%]: 93
--
MOLECULE: COc1ccc(-n2ncc3cnc(Nc4cc(OC)c(OC)c(OCCCN5CCN(C)CC5)c4)nc32)cc1
SYSTEM UNDER TEST: MARK3 (human) (UniProt P27448)
residual activity [%]: 16
--
MOLECULE: CCc1cncnc1N1CCN(Cc2nc3cc(C(F)(F)F)ccc3[nH]2)CC1
SYSTEM UNDER TEST: MARK3 (human) (UniProt P27448)
residual activity [%]: 83
--
MOLECULE: Cc1ccc(Sc2cnc(Nc3cccc(Br)n3)s2)cc1C(=O)N1CCN(C(=O)CN)CC1
SYSTEM UNDER TEST: MARK3 (human) (UniProt P27448)
residual activity [%]: 89
